Where do these numbers come from? They come from the RNAGym collection of RNA variant scans (doi:10.1093/molbev/msab373).

Catalogue of reverse-splicing fitness readings, one per entry.
B1: Azoarcus group I ribozyme (parent)
chain: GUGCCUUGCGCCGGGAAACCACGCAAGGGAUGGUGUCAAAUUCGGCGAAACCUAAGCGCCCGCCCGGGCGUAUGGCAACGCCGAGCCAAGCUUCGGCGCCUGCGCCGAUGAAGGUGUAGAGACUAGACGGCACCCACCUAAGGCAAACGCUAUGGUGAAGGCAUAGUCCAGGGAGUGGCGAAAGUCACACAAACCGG

- Variants of: B1
- Method summary: reverse-splicing fitness (ratio to wild type); higher = more active; in vitro selection; Mg2+ level not given
// return just the number, without any unit appended

Would you please look over these solved cases?
[
  {
    "Variant key": "C82G A111G A120C A145C C150U C169G U176G",
    "reverse-splicing fitness": 0.0061
  },
  {
    "Variant key": "A111G C150U C169A",
    "reverse-splicing fitness": 0.0299
  },
  {
    "Variant key": "C82G A111C A145G C150U C169U U176A",
    "reverse-splicing fitness": 0.0129
  }
]

Task: Which reverse-splicing fitness reading was recorded for the variant C82U A145G C150G U176A ?
Result: 0.0372

Task: Which reverse-splicing fitness reading was recorded for the variant C82U A111G A120G A145C C150U C169A U176C ?
Result: 0.00548
